Tested on: PXR homodimer (NR concentration 270 nM)
Assay: PBM binding z-score (relative to random genomic background probes); higher = stronger binding; sequences stand for … in GC…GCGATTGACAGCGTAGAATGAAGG
Entry flag: 1 if PBM binding z-score reaches 0.5; -1 if it does not.

These solved cases illustrate the format of a correct answer.
{"columns": ["Chain sequence", "Target under test", "Assigned category"],
 "data": [
  ["ATATGTACGTTAGCTGGGGTCATTCAGACTAGGC", "PXR homodimer (NR concentration 270 nM)", 1],
  ["CCGACTGGGGCAAAGGTTACCATACTCAGTACGA", "PXR homodimer (NR concentration 270 nM)", -1],
  ["AGAATGAGGTTATTAAGATCACGGAATTGCGGTC", "PXR homodimer (NR concentration 270 nM)", 1],
  ["TCTAGGTGGTCACGGAGGTCACACACGACGGGTA", "PXR homodimer (NR concentration 270 nM)", 1],
  ["TAGCCTAGGTCATTGAGCCAGTATAGTACGCATC", "PXR homodimer (NR concentration 270 nM)", -1]
]}

Ask: Evaluate TCTTATAGATCAGCAGGTTAAGAAAGCTGGCCAA : PBM binding z-score at minimum 0.5?
Result: -1

Ask: Input GCGTCTGGGGCAAAGCAGGTTACCATAAGGTTGG
Result: -1

Ask: Input CCTTTTAGTTGACCATAAGGGCAACCGAAGCTCG
Result: 1

Ask: Input TATCGGAGGACACGAAGGTCAGAGCTTTCCAGAG
Result: 1

Ask: Input CCTACTGGGCCATTCAGATGTCATTGATCATATG
Result: -1

Ask: Input TCATATAGTTAAAGGTGAAAGTCGAACGATATGA
Result: -1
